- ASSAY TARGET: proMMP9(20-445;ΔFnII) (SEQ ID NO:6) (Homo sapiens, UniProt P14780, DEL216-390)
- Construct: start methionine (N)
- Sequence (P14780 with tags, fused parts or gaps DEL216-390): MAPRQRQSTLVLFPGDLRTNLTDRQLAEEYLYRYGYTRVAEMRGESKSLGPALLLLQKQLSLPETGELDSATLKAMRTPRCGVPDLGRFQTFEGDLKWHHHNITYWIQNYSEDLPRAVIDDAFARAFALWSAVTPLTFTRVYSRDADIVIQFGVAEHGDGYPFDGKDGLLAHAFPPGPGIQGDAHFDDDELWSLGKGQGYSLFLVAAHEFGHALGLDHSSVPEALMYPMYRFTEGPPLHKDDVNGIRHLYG
- PROCEDURE TEXT: ThermoFluor binding assay with proMMP9(20-445;ΔFnII)
- TEST CONTEXT: pH 7.0
pKd: −log10 of the molar value.
QUANTITY KIND: pKd

Worked set:
INSERT INTO measurements (cpd_smiles, quantity_kind, reported_result) VALUES
  ('Cc1nc(CN2CCCN(C)CC2)sc1-c1csc(Nc2cc(C(N)=O)ccc2OC(C)C)n1', 'pKd', 5.96),
  ('CCN1CCN(C(=O)c2nc(C)c(-c3csc(Nc4cc(C(N)=O)ccc4OC(C)C)n3)s2)CC1', 'pKd', 6.15),
  ('Cc1nc(C(=O)N2CCN(C3CCCCC3)CC2)sc1-c1csc(Nc2cc(C(N)=O)ccc2OC(C)C)n1', 'pKd', 6.51),
  ('CC(=O)Nc1nc(C)c(-c2csc(Nc3cc(S(N)(=O)=O)ccc3OC(C)C)n2)s1', 'pKd', 6.28),
  ('Cc1nc(C)c(-c2csc(Nc3cc(C(N)=O)ccc3OC(C)(C)C)n2)s1', 'pKd', 5.72),
  ('CCOc1ccc(C(N)=O)cc1Nc1nc(-c2sc(NC(C)=O)nc2C)cs1', 'pKd', 5.89);

(A) Cc1nc(N)sc1-c1csc(Nc2cc(C#N)ccc2OC(C)C)n1
(B) COc1ccc(C#N)cc1Nc1nc(-c2sc(N)nc2C)cs1
(C) Cc1nc(-c2ncc(C(F)(F)F)cc2N2CCCC2)sc1-c1csc(Nc2cc(C(N)=O)ccc2OC(C)C)n1
Let's sort these by pKd, smallest first. Go ahead? Form field (ranking): labels in requested order.
C, B, A

###

- ASSAY TARGET: proMMP9(20-445;ΔFnII) (SEQ ID NO:6) (Homo sapiens, UniProt P14780, DEL216-390)
- Construct: start methionine (N)
- PROCEDURE TEXT: ThermoFluor binding assay with proMMP9(20-445;ΔFnII)
- TEST CONTEXT: pH 7.0
QUANTITY KIND: Kd (nM)

INSERT INTO measurements (compound, quantity_kind, reported_result) VALUES
  ('COc1ccc(C(N)=O)cc1Nc1nc(-c2sc(N)nc2C(F)(F)F)cs1', 'Kd', 400);

(A) CCC(C)Oc1ccc(C(N)=O)cc1Nc1nc(-c2sc(C)nc2C)cs1 (racemic)
(B) Cc1nc(N2CCOCC2)sc1-c1csc(Nc2cc(C(N)=O)ccc2OC(C)C)n1
When their Kd values are compared, which is larger, A or B ? Let me know the label of the one you choose.
A
(A: 570 nM, B: 63 nM)

(A) COc1cc(C)c(C(N)=O)cc1Nc1nc(-c2sc(N3CCN(C)CC3)nc2C)cs1
(B) COc1ccc(S(N)(=O)=O)cc1Nc1nc(-c2sc(NC(C)=O)nc2C)cs1
Which has the smaller recorded Kd, A or B ? // return label of chosen record
A
(A: 570 nM, B: 1500 nM)

###

- ASSAY TARGET: full-length proMMP9(1-707) (SEQ ID NO:1) (Homo sapiens, UniProt P14780, R574P)
- Construct: made in house; host or cells: HEK293 (proMMP9, secreted); E. coli (MMP3)
- Sequence (P14780 20-707 R574P): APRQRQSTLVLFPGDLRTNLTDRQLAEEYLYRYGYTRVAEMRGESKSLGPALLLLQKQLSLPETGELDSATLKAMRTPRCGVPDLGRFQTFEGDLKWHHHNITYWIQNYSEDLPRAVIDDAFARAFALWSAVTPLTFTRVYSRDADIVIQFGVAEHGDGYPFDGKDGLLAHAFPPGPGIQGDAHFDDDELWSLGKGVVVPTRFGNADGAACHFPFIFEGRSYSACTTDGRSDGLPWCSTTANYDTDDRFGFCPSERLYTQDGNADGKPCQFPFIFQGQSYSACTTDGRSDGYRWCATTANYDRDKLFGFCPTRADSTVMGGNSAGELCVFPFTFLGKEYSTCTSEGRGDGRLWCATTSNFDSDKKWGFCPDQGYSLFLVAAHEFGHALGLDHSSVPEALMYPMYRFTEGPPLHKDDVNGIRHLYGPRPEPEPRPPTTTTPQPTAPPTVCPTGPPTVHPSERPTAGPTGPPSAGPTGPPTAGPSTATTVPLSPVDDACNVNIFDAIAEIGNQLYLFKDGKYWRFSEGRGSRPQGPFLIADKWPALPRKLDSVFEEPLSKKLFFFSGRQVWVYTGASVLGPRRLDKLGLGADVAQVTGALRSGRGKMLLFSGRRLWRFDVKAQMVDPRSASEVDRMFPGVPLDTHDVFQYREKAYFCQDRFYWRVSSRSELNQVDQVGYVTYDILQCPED
- PROCEDURE TEXT: ProMMP9/MMP3 DQ Gelatin Activation Assay
- Assay type: biochemical
- TEST CONTEXT: 20 nM proMMP9, 10 nM MMP3, DQ gelatin; read-out: ProMMP9/MMP3 DQ gel Activation Assay, IC50
pIC50: −log10 of the molar value.
QUANTITY KIND: pIC50

INSERT INTO measurements (compound, assay_target, quantity_kind, reported_result) VALUES
  ('COc1ccc(C)cc1Nc1nc(-c2sc(NC(C)=O)nc2C)cs1 [Example 11]', 'full-length proMMP9(1-707) (SEQ ID NO:1) (Homo sapiens, UniProt P14780, R574P)', 'pIC50', 5.05),
  ('CC(=O)Nc1nc(C)c(-c2csc(Nc3cccnc3O)n2)s1 [Example 148]', 'full-length proMMP9(1-707) (SEQ ID NO:1) (Homo sapiens, UniProt P14780, R574P)', 'pIC50', 5.22),
  ('CC(=O)Nc1nc(C)c(-c2csc(Nc3cccc4ccccc34)n2)s1 [Example 149]', 'full-length proMMP9(1-707) (SEQ ID NO:1) (Homo sapiens, UniProt P14780, R574P)', 'pIC50', 4.57);

(a) COc1ncccc1Nc1nc(-c2sc(NC(C)=O)nc2C)cs1 [Example 147]
(b) CC(=O)Nc1nc(C)c(-c2csc(Nc3cccc4cccnc34)n2)s1 [Example 146]
Pick the one with the larger pIC50: a vs b // caller expects the label of the chosen entry
b
